MEASURED TARGET: human CIS lacking both the N-terminal region (residues 1-66) and the PEST motif (ΔNT/ΔPEST) in trimeric … (UniProt Q9NSE2 67-258; Q15370 1-118; Q15369 17-112)
PROTOCOL: ITC
Non-standard residues stand in square brackets, D forms with d. No end group written: not given here. pY = N[C@@H](Cc1ccc(OP(=O)(O)O)cc1)C(=O)O
TEST READOUT: Kd (nM)
One number for each entry, in nM.

Ask | Requested field: Kd. Item: AIETDKE[pY]YTVKDDRD [JAK1 activation loop phosphopeptide (Tyr1034 phosphorylated)]
Reply | 2200
